- tested-on: Sucrase-isomaltase, intestinal (Rattus norvegicus, UniProt P23739)
- Sequence (P23739 1-1013 limits assumed): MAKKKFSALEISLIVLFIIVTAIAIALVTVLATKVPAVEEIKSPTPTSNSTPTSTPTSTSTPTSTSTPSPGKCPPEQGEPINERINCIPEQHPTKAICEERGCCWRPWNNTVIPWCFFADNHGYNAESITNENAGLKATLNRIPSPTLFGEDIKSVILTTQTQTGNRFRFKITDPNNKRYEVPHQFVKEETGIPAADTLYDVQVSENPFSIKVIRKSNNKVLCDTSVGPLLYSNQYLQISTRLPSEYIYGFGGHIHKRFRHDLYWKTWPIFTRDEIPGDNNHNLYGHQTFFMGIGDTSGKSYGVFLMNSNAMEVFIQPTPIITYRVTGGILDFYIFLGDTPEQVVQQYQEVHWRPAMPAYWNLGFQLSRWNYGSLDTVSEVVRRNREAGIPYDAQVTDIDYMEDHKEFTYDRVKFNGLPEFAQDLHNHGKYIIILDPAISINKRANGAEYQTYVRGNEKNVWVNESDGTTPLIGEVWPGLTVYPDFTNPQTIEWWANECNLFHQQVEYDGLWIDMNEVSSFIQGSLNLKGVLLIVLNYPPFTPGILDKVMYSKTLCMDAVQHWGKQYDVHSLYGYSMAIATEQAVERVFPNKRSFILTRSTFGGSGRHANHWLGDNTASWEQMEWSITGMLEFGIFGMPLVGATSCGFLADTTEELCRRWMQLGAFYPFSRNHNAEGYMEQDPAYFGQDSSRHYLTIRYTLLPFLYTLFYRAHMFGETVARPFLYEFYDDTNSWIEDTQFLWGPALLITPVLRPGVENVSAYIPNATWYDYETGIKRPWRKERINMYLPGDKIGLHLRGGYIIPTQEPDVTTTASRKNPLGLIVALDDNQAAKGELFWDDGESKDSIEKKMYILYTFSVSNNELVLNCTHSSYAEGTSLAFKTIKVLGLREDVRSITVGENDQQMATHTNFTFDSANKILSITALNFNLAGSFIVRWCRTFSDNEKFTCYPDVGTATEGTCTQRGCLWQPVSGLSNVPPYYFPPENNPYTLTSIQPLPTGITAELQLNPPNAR
- Sequence (P23739 1014-1841 limits assumed): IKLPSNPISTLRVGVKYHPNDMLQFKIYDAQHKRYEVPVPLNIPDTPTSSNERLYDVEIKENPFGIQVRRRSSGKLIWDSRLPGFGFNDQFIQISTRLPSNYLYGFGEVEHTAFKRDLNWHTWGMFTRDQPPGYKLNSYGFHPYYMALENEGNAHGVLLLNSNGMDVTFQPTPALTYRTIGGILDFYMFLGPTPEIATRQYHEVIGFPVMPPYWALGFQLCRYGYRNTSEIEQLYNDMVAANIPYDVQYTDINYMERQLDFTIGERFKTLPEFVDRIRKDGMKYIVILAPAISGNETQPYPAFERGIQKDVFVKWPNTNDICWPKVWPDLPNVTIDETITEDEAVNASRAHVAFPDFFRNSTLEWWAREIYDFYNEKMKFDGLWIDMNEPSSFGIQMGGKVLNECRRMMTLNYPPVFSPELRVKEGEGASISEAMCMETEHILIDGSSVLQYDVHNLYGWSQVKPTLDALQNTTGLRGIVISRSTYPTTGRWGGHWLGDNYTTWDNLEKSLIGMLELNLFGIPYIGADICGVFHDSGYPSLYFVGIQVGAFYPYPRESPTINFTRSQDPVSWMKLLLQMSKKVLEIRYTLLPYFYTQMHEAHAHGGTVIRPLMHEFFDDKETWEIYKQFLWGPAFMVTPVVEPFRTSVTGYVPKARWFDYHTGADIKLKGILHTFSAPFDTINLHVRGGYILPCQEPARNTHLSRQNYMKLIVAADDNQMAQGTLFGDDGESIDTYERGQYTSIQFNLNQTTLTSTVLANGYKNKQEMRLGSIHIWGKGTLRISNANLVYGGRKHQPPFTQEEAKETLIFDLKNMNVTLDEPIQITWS
- run-description: Inhibition of rat intestinal sucrase
endpoint-label: IC50 (µM)

# compound, tested-on, IC50, µM
measured = [
    ("OC[C@@H]1[C@@H](O)[C@H](O)C[S@@+]1C[C@@H](O)[C@H](O)[C@H](O)[C@@H](O)CO", "Sucrase-isomaltase, intestinal (Rattus norvegicus, UniProt P23739)", 0.3),
    ("O=S(=O)([O-])O[C@@H](CO)[C@H](O)C[S@+]1C[C@@H](O)[C@H](O)[C@H]1CO [SALACINOL]", "Sucrase-isomaltase, intestinal (Rattus norvegicus, UniProt P23739)", 1.6),
    ("OC[C@@H](O)[C@@H](O)[C@H](O)[C@H](O)C[S@+]1C[C@@H](O)[C@H](O)[C@H]1CO", "Sucrase-isomaltase, intestinal (Rattus norvegicus, UniProt P23739)", 2.9),
    ("O=S(=O)([O-])O[C@@H]([C@H](O)[C@@H](O)CO)[C@H](O)C[S@+]1C[C@@H](O)[C@H](O)[C@H]1CO [PONKORANOL]", "Sucrase-isomaltase, intestinal (Rattus norvegicus, UniProt P23739)", 0.29),
    ("OC[C@@H]1[C@@H](O)[C@H](O)C[S@@+]1C[C@@H](O)[C@@H](O)[C@H](O)[C@H](O)[C@@H](O)CO [NEOKOTALANOL]", "Sucrase-isomaltase, intestinal (Rattus norvegicus, UniProt P23739)", 4.5),
    ("OCC(CO)N[C@H]1C[C@](O)(CO)[C@@H](O)[C@H](O)[C@H]1O [VOGLIBOSE]", "Sucrase-isomaltase, intestinal (Rattus norvegicus, UniProt P23739)", 0.2),
    ("OC[C@H](O)C[S@+]1C[C@@H](O)[C@H](O)[C@H]1CO [NEOSALAPRINOL]", "Sucrase-isomaltase, intestinal (Rattus norvegicus, UniProt P23739)", 90),
    ("OC[C@@H]1[C@@H](O)[C@H](O)C[S@@+]1C[C@@H](O)[C@@H](O)[C@H](O)[C@@H](O)CO [NEOPONKORANOL]", "Sucrase-isomaltase, intestinal (Rattus norvegicus, UniProt P23739)", 1),
]

[1] O=S(=O)([O-])O[C@@H]([C@H](O)[C@H](O)[C@@H](O)CO)[C@H](O)C[S+]1C[C@@H](O)[C@H](O)[C@H]1CO (stereo partly drawn) [KOTALANOL]
[2] [O-][C@@H](CO)[C@H](O)C[S@+]1C[C@@H](O)[C@H](O)[C@H]1CO [NEOSALACINOL]
input: Sorting ascending by IC50, which comes first: 1 or 2 ? Your answer should be the label of the entry you select.
output: 1
(1: 0.75 µM, 2: 1.3 µM)

====

- tested-on: Sucrase-isomaltase, intestinal (Rattus norvegicus, UniProt P23739)
- run-description: Inhibition of rat intestinal isomaltase
endpoint-label: IC50 (nM)

# structure-smiles, result-unit, IC50
rows = [
    ("OC[C@@H](O)[C@@H](O)[C@H](O)[C@H](O)C[S@+]1C[C@@H](O)[C@H](O)[C@H]1CO", "nM", 1000),
    ("O=S(=O)([O-])O[C@@H](CO)[C@H](O)C[S@+]1C[C@@H](O)[C@H](O)[C@H]1CO", "nM", 1300),
]

[A] OC[C@H](O)C[S@+]1C[C@@H](O)[C@H](O)[C@H]1CO
[B] OC[C@@H]1[C@@H](O)[C@H](O)C[S@@+]1C[C@@H](O)[C@@H](O)[C@H](O)[C@@H](O)CO
input: Sorting ascending by IC50, which comes first: A or B ? Your answer should be the label of the entry you select.
output: B
